TARGET_OR_SYSTEM: IRE1α (Homo sapiens (Human), UniProt O75460)
Sequence (O75460 19-977): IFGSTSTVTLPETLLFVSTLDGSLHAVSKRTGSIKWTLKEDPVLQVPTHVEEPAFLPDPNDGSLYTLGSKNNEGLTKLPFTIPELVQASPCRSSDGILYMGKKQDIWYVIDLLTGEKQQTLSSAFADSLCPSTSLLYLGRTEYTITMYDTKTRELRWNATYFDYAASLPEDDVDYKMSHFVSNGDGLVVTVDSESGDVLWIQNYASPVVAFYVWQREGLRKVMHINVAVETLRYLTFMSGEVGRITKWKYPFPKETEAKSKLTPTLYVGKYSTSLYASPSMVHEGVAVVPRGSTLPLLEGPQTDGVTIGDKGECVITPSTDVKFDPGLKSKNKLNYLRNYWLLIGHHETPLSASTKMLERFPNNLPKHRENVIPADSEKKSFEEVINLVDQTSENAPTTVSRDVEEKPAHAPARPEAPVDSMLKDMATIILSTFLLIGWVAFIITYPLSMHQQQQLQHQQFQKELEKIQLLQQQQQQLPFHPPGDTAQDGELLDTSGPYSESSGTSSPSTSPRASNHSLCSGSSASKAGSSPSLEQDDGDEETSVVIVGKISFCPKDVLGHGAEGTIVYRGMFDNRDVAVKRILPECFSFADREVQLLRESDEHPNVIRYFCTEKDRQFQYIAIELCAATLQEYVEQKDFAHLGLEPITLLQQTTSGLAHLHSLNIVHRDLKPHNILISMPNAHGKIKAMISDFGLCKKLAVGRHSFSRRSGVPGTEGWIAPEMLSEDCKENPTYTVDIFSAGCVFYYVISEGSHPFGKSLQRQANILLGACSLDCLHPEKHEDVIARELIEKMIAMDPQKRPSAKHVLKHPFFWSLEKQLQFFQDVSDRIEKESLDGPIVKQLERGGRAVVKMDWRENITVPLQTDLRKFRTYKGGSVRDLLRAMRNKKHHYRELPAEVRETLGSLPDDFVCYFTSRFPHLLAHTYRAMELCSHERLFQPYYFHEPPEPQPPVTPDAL
ASSAY_EXPLANATION: In vitro luciferase assay (IRE1α Endoribonuclease Nanoluciferase Assay)
SETUP_CONDITIONS: 293T cells, XBP1 luciferase reporter
READOUT_NAME: EC50

Given item NC1CCC(Nc2ncc(CCc3ccc(NS(=O)(=O)c4ccccc4Cl)cc3)cn2)CC1 (stereo not shown) [Compound 1] , the value recorded as its EC50 is 50 to 100 nM

Record Cc1cc(NS(=O)(=O)c2ccccc2Cl)ccc1/C=C/c1cnc(NC2CCC(N(C)C)CC2)nc1 (stereo not shown) [Compound 26] . Reported EC50: ≤ 5 nM

The compound identified as Cc1nc(NS(=O)(=O)c2cccc(F)c2Cl)ccc1/C=C/c1cnc(NC2CCC(N(C)C)CC2)nc1 (stereo not shown) [Compound 33] registered its EC50 at ≤ 5 nM

Record Cc1nc(NS(=O)(=O)c2ccccc2Cl)c(F)cc1/C=C/c1cnc(NC2CCC(N)CC2)nc1 (stereo not shown) [Compound 58] . Reported EC50: 50 to 100 nM

Looking up COc1nc(NS(=O)(=O)c2ccccc2Cl)ccc1/C=C/c1cnc(NC2CCC(N3CCCCC3)CC2)nc1 (stereo not shown) [Compound 60] , I found its EC50 recorded as ≤ 5 nM

EC50 recorded for this compound, COc1nc(NS(=O)(=O)c2cnccc2Cl)ccc1/C=C/c1cnc(NC2CCC(N(C)C)CC2)nc1 (stereo not shown) [Compound 56] , is 50 to 100 nM

Field EC50 (entry CN(C)C1CCC(Nc2ncc(/C=C/c3ccc(NS(=O)(=O)c4ccccc4Cl)nn3)cn2)CC1 (stereo not shown) [Compound 52] ) reads 5 to 50 nM

---

TARGET_OR_SYSTEM: IRE1α (Homo sapiens (Human))
ASSAY_EXPLANATION: In vitro luciferase assay (IRE1α Endoribonuclease Nanoluciferase Assay)
SETUP_CONDITIONS: 293T cells, XBP1 luciferase reporter
READOUT_NAME: EC50

// sample Cc1nc(NS(=O)(=O)c2cnccc2Cl)ccc1/C=C/c1cnc(NC2CCC(N(C)C)CC2)nc1 (stereo not shown) , its EC50 was 50 to 100 nM

Quick note, EC50 for CN(C)C1CCC(Nc2ncc(/C=C/c3ccc(NS(=O)(=O)c4ccccc4Cl)cc3)cn2)CC1 (stereo not shown) landed at ≤ 5 nM

// CN(C)C1CCC(Nc2ncc(/C=C/c3cnc(NS(=O)(=O)c4ccccc4Cl)cn3)cn2)CC1 (stereo not shown) : EC50 value = 5 to 50 nM

The recorded EC50 for entry CCc1nc(NS(=O)(=O)c2ccccc2Cl)ccc1/C=C/c1cnc(NC2CCC(NC)CC2)nc1 (stereo not shown) equals 5 to 50 nM

Lab note: measured EC50 of Cc1nc(NS(=O)(=O)c2ccccc2Cl)ccc1/C=C/c1cnc(NC2CCC(N)CC2)nc1 (stereo not shown) was 5 to 50 nM

For this compound ( COc1nc(NS(=O)(=O)c2cccc(Cl)c2Cl)ccc1/C=C/c1cnc(NC2CCC(N(C)C)CC2)nc1 (stereo not shown) ), measured EC50 is ≤ 5 nM

In plain terms, COc1cc(NS(=O)(=O)c2ccccc2Cl)c(F)cc1/C=C/c1cnc(NC2CCC(N(C)C)CC2)nc1 (stereo not shown) has a documented EC50 of ≤ 5 nM

---

TARGET_OR_SYSTEM: IRE1α (Homo sapiens (Human), UniProt O75460)
ASSAY_EXPLANATION: In vitro luciferase assay (IRE1α Endoribonuclease Nanoluciferase Assay)
SETUP_CONDITIONS: 293T cells, XBP1 luciferase reporter
pEC50: −log10 of the molar value.
READOUT_NAME: pEC50

Record summary for Cc1cc(NS(=O)(=O)c2ccccc2Cl)ccc1/C=C/c1cnc(NC2CCC(N)CC2)nc1 (stereo not shown) [Compound 5] : reported pEC50 = ≥ 8.30

In plain terms, CNC1CCC(Nc2ncc(/C=C/c3cc(F)c(NS(=O)(=O)c4ccccc4Cl)nc3OC)cn2)CC1 (stereo not shown) [Compound 59] has a documented pEC50 of 7.00 to 7.30

CCc1nc(NS(=O)(=O)c2ccccc2Cl)ccc1/C=C/c1cnc(NC2CCC(N(C)C)CC2)nc1 (stereo not shown) [Compound 29] has a reported pEC50 of ≥ 8.30

The value of pEC50 measured for the molecule COc1c(/C=C/c2cnc(NC3CCC(N(C)C)CC3)nc2)ccc(NS(=O)(=O)c2ccccc2Cl)c1F (stereo not shown) [Compound 66] turned out to be ≥ 8.30

// field: pEC50; key: COc1nc(NS(=O)(=O)c2cccc(F)c2Cl)ccc1/C=C/c1cnc(NC2CCC(N(C)C)CC2)nc1 (single isomer, unassigned) [Compound 53] ; value = 7.00 to 7.30

Sure, the documented pEC50 for COc1nc(NS(=O)(=O)c2ccccc2Cl)ccc1/C=C/c1cnc(NC2CCC(N3CCOCC3)CC2)nc1 (stereo not shown) [Compound 57] is ≥ 8.30

Note to self: pEC50 recorded for COc1nc(NS(=O)(=O)c2ccc(F)c(F)c2Cl)ccc1/C=C/c1cnc(NC2CCC(N(C)C)CC2)nc1 (stereo not shown) [Compound 41] was 7.30 to 8.30
